Item-by-item account of log10(TGI)
# System: CCRF-CEM leukemia
# protocol_summary: NCI tumour cell line growth inhibition, 48 h
Heads up, the numbers here are log10 of TGI in µM units.

Check out these entries, answers already filled in.
compound	measured_metric	observed
Cc1cc(-c2nc3ccc(F)cc3s2)ccc1NC(=O)C(N)CCCCN (stereo not given)	log10(TGI)	0.89
CC(=O)OC1CC2C(C)(C)C(=O)C=C[C@]2(C)C2CCC3(C)C(c4ccoc4)C(=O)C4OC43[C@]12C (stereo not given in full)	log10(TGI)	1.77

Looking for the measured log10(TGI) of O=C1C=CC(=O)c2c(O)c(NCCN3CCOCC3)c(Cl)c(O)c21 , can you help?
0.65

Looking for the measured log10(TGI) of Clc1ccc(-c2nnc(-c3nn(-c4ccccc4)c4nc5ccccc5nc34)o2)cc1 , can you help?
1.91

Looking for the measured log10(TGI) of Cc1ccccc1SC(/C=C/NNC1=NC(c2ccccc2)C(c2ccccc2)=NN1)c1ccccc1 (stereo not given) , can you help?
1.97
